# TEST_TARGET: Axl phosphorylation in 293MSR-AxlWT6 cells (Homo sapiens (Human))
# Sequence (P30530 26-894): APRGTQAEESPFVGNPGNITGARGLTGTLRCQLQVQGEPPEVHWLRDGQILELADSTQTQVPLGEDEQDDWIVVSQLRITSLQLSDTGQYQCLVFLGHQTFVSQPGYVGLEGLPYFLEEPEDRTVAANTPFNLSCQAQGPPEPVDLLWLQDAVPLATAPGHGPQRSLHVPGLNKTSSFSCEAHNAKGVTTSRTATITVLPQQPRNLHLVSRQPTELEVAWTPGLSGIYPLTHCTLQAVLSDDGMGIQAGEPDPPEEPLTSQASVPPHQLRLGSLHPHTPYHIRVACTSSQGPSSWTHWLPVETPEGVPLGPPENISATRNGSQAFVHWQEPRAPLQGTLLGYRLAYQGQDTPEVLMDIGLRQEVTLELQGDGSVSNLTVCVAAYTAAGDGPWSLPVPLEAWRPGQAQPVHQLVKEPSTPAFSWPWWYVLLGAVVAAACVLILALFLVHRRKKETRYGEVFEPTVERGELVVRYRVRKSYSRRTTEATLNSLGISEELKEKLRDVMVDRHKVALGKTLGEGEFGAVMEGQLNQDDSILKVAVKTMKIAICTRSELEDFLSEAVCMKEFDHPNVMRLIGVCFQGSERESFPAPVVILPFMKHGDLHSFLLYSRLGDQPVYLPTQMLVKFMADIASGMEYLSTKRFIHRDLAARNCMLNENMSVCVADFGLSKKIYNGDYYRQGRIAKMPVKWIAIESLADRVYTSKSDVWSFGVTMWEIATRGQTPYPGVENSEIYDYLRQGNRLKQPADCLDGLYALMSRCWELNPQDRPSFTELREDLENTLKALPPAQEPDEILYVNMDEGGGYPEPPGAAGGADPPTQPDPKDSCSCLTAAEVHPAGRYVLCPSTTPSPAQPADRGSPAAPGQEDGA
# PROCEDURE_SUMMARY: Cellular Axl phosphorylation ELISA assay (Gas6-stimulated 293MSR-AxlWT6 cells)
# Assay type: cell-based
# TEST_SETTINGS: Table 4A, read-out: CELL AXL IC50
QUANTITY_KIND: IC50 (nM)

// worked examples, IC50 included
| MOLECULE | TEST_TARGET | QUANTITY_KIND | REPORTED_VALUE |
| --- | --- | --- | --- |
| COC[C@@H](C)Oc1nc(C(=O)NC23CC(C2)C3)cc(N2CCC(COc3nc(C)cnc3N)CC2)n1 | Axl phosphorylation in 293MSR-AxlWT6 cells (Homo sapiens (Human)) | IC50 | 1.92 |
| COc1ccnc2[nH]cc(C3CCN(c4cc(C(=O)N[C@H](C)CO)nc(OC[C@H]5C[C@H]5C#N)n4)CC3)c12 | Axl phosphorylation in 293MSR-AxlWT6 cells (Homo sapiens (Human)) | IC50 | 0.4 |

A = C[C@@H](NC(=O)c1cc(N2CCC(c3ccc(N)c(C(N)=O)n3)CC2)nc(OCC2CC2(F)F)n1)C(C)(C)O (single isomer, unassigned) [Example 15]
B = COc1ccnc2[nH]cc(C3CCN(c4nc(OC[C@H]5C[C@H]5C#N)nc(C(=O)NCC(F)(F)F)n4)CC3)c12
Just tell me: smaller IC50 value, A or B ? Please reply using the label of the selected record. B
(B: 0.72 nM, A: 8.36 nM)
